Target: Protein cereblon/NAD-dependent protein deacylase sirtuin-6 (Homo sapiens, UniProt Q8N6T7+Q96SW2)
Sequence (Q8N6T7 2-355 limits assumed): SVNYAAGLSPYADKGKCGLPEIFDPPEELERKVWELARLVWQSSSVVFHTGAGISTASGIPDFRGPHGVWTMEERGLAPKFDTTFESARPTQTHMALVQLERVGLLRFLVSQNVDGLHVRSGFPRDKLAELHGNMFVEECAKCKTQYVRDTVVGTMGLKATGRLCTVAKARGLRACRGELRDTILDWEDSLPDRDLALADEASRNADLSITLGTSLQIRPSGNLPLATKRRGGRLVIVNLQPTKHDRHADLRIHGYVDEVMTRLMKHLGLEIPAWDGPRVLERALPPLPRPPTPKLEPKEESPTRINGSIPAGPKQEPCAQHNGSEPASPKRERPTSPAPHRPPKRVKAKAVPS
Sequence (Q96SW2 whole entry partner): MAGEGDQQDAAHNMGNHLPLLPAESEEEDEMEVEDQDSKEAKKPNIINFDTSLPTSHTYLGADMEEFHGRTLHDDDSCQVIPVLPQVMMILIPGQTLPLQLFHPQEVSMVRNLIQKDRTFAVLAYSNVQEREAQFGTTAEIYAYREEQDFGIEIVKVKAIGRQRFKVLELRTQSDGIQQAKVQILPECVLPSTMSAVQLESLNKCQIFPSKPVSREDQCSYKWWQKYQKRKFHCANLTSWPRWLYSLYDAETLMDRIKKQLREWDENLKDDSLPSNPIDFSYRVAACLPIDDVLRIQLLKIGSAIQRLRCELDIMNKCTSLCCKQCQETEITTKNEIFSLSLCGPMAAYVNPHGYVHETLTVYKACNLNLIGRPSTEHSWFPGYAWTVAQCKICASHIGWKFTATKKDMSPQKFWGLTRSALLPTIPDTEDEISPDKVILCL
Experiment: PROTAC activity at CRBN/SIRT6 in human SK-HEP1 cells assessed as induction of SIRT6 degradation at 5 uM incubated for 36 hrs by In-Cell ELISA relative to control
Type: cell-based
Listed here are molecules together with their documented Activity.
// return numeric value only (unit: %, not printed)

# MOLECULE, Activity, %
data = [
    ("Nc1cc(N2CCN(CCC(=O)Nc3cccc4c3C(=O)N(C3CCC(=O)NC3=O)C4=O)CC2)ccc1[N+](=O)[O-] (configuration not stated)", 47.2),
    ("Nc1cc(N2CCN(CCCCC(=O)Nc3cccc4c3C(=O)N(C3CCC(=O)NC3=O)C4=O)CC2)ccc1[N+](=O)[O-] (configuration not stated)", 49.3),
    ("Nc1cc(N2CCN(CCCCCC(=O)Nc3cccc4c3C(=O)N(C3CCC(=O)NC3=O)C4=O)CC2)ccc1[N+](=O)[O-] (configuration not stated)", 36.8),
    ("Nc1cc(N2CCN(CCNC(=O)CNc3cccc4c3C(=O)N(C3CCC(=O)NC3=O)C4=O)CC2)ccc1[N+](=O)[O-] (configuration not stated)", 91.4),
    ("Nc1cc(N2CCN(CC(=O)Nc3cccc4c3C(=O)N(C3CCC(=O)NC3=O)C4=O)CC2)ccc1[N+](=O)[O-] (configuration not stated)", 17.4),
]

IN: For the molecule shown here, Nc1cc(N2CCN(CCOCCOCC(=O)Nc3cccc4c3C(=O)N(C3CCC(=O)NC3=O)C4=O)CC2)ccc1[N+](=O)[O-] (configuration not stated) , give the reported Activity.
OUT: 90.6

IN: What does the record list as Activity for Nc1cc(N2CCN(C(=O)COc3cccc4c3C(=O)N(C3CCC(=O)NC3=O)C4=O)CC2)ccc1[N+](=O)[O-] (configuration not stated) ?
OUT: 15.8
